target: human IL-6Rα (hIL-6Rα), barcoded negative control antigen (human) (UniProt P08887); assay: barcoded-antigen count on source cell (scRNA-seq)
Sequence (P08887 20-358 limits assumed): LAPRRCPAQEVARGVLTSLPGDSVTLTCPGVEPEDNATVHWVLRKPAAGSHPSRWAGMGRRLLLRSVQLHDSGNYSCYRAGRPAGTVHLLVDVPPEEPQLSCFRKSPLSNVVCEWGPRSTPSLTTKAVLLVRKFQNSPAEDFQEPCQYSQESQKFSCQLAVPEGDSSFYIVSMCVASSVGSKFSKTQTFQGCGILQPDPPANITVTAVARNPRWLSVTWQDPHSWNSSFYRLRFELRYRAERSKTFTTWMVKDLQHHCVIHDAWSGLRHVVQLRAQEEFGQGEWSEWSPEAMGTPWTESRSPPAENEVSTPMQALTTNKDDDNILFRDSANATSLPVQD
So I've got a bunch of binders here, and I need their REGN78.L15 ab raw values.
Give bare numbers, in counts.

Previously resolved entries follow.
>  <BINDER>
Table 1 Line # 33 antibody (SP_B_cell) (antibody, human IgG4, V domains shown) VH: EVQLLESGGGLVQPGGSLRLSCAASRFTFSNYEMNWVRQAPGKGLEWLSYINTSGTTIYYADSVKGRFTISRDNAKNSLYLQMNSLRAEDTAVYYCARVNWNSDAFDIWGQGTMVTVSS VL: EIVMTQSPATLSVSPGERATLSCRASQIVGSNLAWYHQKPGQAPRLLIYSASTRATGIPARFSGSGSGTEFTLTISSLQSEDFAVYYCQQYNNWPPFTFGPGTKVDIK

>  <MEASURE_NAME>
REGN78.L15 ab raw

>  <ENDPOINT_RESULT>
106

$$$$
>  <BINDER>
Table 1 Line # 1 antibody (BM_Plasma_cell) (antibody, human IgG4, V domains shown) VH: EVQLVESGGGLVKPGGSLRLSCAASGFTFSSYSMNWVRQAPGKGLEWVSSISSSSSYIYYADSVKGRFTISRDNAKNSLYLQMNSLRAEDTAVYYCASLAARPFWGQGTMVTVSS VL: DIQMTQSPSSVSASVGDRVTITCRASQGISSWLAWYQQKPGRAPKLLIYAASSLQSGVPSRFSGSGSGTDFTLTISSLQPEDFATYYCQQANSFPLTFGGGTKVEIK

>  <MEASURE_NAME>
REGN78.L15 ab raw

>  <ENDPOINT_RESULT>
271

$$$$

Lab note: next binder to report on.
What value of REGN78.L15 ab raw has been recorded for this entry: Table 1 Line # 15 antibody (BM_Plasma_cell) (antibody, human IgG4, V domains shown) VH: EVQLVESGGALVQPGRSLRLSCAASGFAFDDYAMHWVRQAPGKGLEWVSGISWNGASLGYADSLKGRFTISRDNAKNSLYLQMNSLRSEDTALFYCARDYSSAWYGYFDYWGQGTLVTVSS VL: DIQMTQSPSSLSASVGDRVTITCRASQDISNYLAWYQQKPGKVPKLLIYAASTLQSGVPSRFSGSGSGTDFTLTISSLQPQDVATYYCQNYNSVPRTFGQGTKVEIK
158
